Test system: LX-2
Assay overview: Cytotoxicity against human LX2 cells assessed as cell growth inhibition at 10 uM incubated for 48 hrs by CCK8 assay relative to control
Assay type: toxicity, cell-based
Measurement context: lx-2, 48 h, 10 µM
Reported property: Activity

The reported LX-2 Activity of CC(=O)N[C@H]1[C@H](OCCCCC(=O)NCCCNC(=O)CCOCC(COCCC(=O)NCCCNC(=O)CCCCO[C@@H]2O[C@H](CO)[C@H](O)[C@@H](O)[C@H]2NC(C)=O)(COCCC(=O)NCCCNC(=O)CCCCO[C@@H]2O[C@H](CO)[C@H](O)[C@@H](O)[C@H]2NC(C)=O)NC(=O)CCC(=O)NCCOCCOCCOCCOCCn2cc(COP(=O)(COCCn3cnc4c(N)ncnc43)OCOC(=O)C(C)(C)C)nn2)O[C@H](CO)[C@H](O)[C@H]1O (some centres not stated) is Toxic

Record CC(=O)N[C@H]1[C@H](OCCCCC(=O)NCCOCCOCCOCCOCCn2cc(COP(=O)(CO[C@H](C)Cn3cnc4c(N)ncnc43)OCOC(=O)C(C)(C)C)nn2)O[C@H](CO)[C@H](O)[C@H]1O (some centres not stated) has LX-2 Activity equal to Toxic

###

Assay overview: Tmax in Sprague-Dawley rat at 5 mg/kg, iv by LC-MS analysis
Format: ADME, organism-based
Measurement context: in vivo
Please respond with reported Tmax for every item in the list.
Answer format: number, then unit.

Noted for CC(=O)N[C@H]1[C@H](OCCCCC(=O)NCCOCCOCCOCCOCCn2cc(COP(=O)(COCCn3cnc4c(N)ncnc43)OCOC(=O)C(C)(C)C)nn2)O[C@H](CO)[C@H](O)[C@H]1O (some centres not stated) : its Tmax reads 1.98 min

compound CC(=O)N[C@H]1[C@H](OCCCCC(=O)NCCOCCOCCOCCOCCn2cc(COP(=O)(CO[C@H](C)Cn3cnc4c(N)ncnc43)OCOC(=O)C(C)(C)C)nn2)O[C@H](CO)[C@H](O)[C@H]1O (some centres not stated) , Tmax observed: 1.98 min

###

Assay overview: Oral bioavailability in Sprague-Dawley rat at 50 mg/kg by LC-MS analysis
Format: ADME, organism-based
Measurement context: in vivo
Answer each item with its documented bioavailability.
Respond numerically; units are % and should not be typed.

Lab note: CC(=O)N[C@H]1[C@H](OCCCCC(=O)NCCOCCOCCOCCOCCn2cc(COP(=O)(CO[C@H](C)Cn3cnc4c(N)ncnc43)OCOC(=O)C(C)(C)C)nn2)O[C@H](CO)[C@H](O)[C@H]1O (some centres not stated) gave bioavailability of 23.4

Lab note: CC(=O)N[C@H]1[C@H](OCCCCC(=O)NCCOCCOCCOCCOCCn2cc(COP(=O)(COCCn3cnc4c(N)ncnc43)OCOC(=O)C(C)(C)C)nn2)O[C@H](CO)[C@H](O)[C@H]1O (some centres not stated) gave bioavailability of 16.6

###

Assay overview: Cytotoxicity against human HepG2.2.15 cells assessed as inhibition of cell proliferation by CCK8 assay
Format: toxicity, cell-based, HepG2 2.2.15
Reported property: CC50

GET /value?item= CC(=O)N[C@H]1[C@H](OCCCCC(=O)NCCOCCOCCOCCOCCn2cc(COP(=O)(CO[C@H](C)Cn3cnc4c(N)ncnc43)OCOC(=O)C(C)(C)C)nn2)O[C@H](CO)[C@H](O)[C@H]1O (stereo partly specified) &field=CC50 returns > 100 µM

So, CC(=O)N[C@H]1[C@H](OCCCCC(=O)NCCOCCOCCOCCOCCn2cc(COP(=O)(COCCn3cnc4c(N)ncnc43)OCOC(=O)C(C)(C)C)nn2)O[C@H](CO)[C@H](O)[C@H]1O (stereo partly specified) ? Its CC50 was > 100 µM

For CC(=O)N[C@H]1[C@H](OCCCCC(=O)NCCCNC(=O)CCOCC(COCCC(=O)NCCCNC(=O)CCCCO[C@@H]2O[C@H](CO)[C@H](O)[C@@H](O)[C@H]2NC(C)=O)(COCCC(=O)NCCCNC(=O)CCCCO[C@@H]2O[C@H](CO)[C@H](O)[C@@H](O)[C@H]2NC(C)=O)NC(=O)CCC(=O)NCCOCCOCCOCCOCCn2cc(COP(=O)(CO[C@H](C)Cn3cnc4c(N)ncnc43)OCOC(=O)OC(C)C)nn2)O[C@H](CO)[C@H](O)[C@H]1O (stereo partly specified) the compound record lists CC50 as > 100 µM

Entry CC(C)(C)C(=O)OCOP(=O)(COCCn1cnc2c(N)ncnc21)OCOC(=O)C(C)(C)C [ADEFOVIR DIPIVOXIL] — recorded CC50 = 10.7 µM

Reported CC50 of CC(C)OC(=O)OCOP(=O)(CO[C@H](C)Cn1cnc2c(N)ncnc21)OCOC(=O)OC(C)C.O=C(O)/C=C/C(=O)O [TENOFOVIR DISOPROXIL FUMARATE] : 8.2 µM

CC50 recorded for this compound, CC(=O)N[C@H]1[C@H](OCCCCC(=O)NCCCNC(=O)CCOCC(COCCC(=O)NCCCNC(=O)CCCCO[C@@H]2O[C@H](CO)[C@H](O)[C@@H](O)[C@H]2NC(C)=O)(COCCC(=O)NCCCNC(=O)CCCCO[C@@H]2O[C@H](CO)[C@H](O)[C@@H](O)[C@H]2NC(C)=O)NC(=O)CCC(=O)NCCOCCOCCOCCOCCn2cc(COP(=O)(COCCn3cnc4c(N)ncnc43)OCOC(=O)C(C)(C)C)nn2)O[C@H](CO)[C@H](O)[C@H]1O (stereo partly specified) , is > 100 µM

###

Assay overview: Half-life in Sprague-Dawley rat at 5 mg/kg, iv by LC-MS analysis
Format: ADME, organism-based
Measurement context: in vivo
Reported property: half-life (min)
Form entry: value (min) — number only.

Entry CC(=O)N[C@H]1[C@H](OCCCCC(=O)NCCOCCOCCOCCOCCn2cc(COP(=O)(CO[C@H](C)Cn3cnc4c(N)ncnc43)OCOC(=O)C(C)(C)C)nn2)O[C@H](CO)[C@H](O)[C@H]1O (some centres not stated) , half-life reported as 67.2

Field half-life (entry CC(=O)N[C@H]1[C@H](OCCCCC(=O)NCCOCCOCCOCCOCCn2cc(COP(=O)(COCCn3cnc4c(N)ncnc43)OCOC(=O)C(C)(C)C)nn2)O[C@H](CO)[C@H](O)[C@H]1O (some centres not stated) ) reads 46.8

###

Assay overview: Toxicity in Kunming mouse assessed as effect on liver colour at 100 to 200 mg/kg, iv once daily for 5 days
Format: organism-based
Measurement context: in vivo, 120 h, dose 100-200 mg/kg, time 5 day
Reported property: Activity

Record CC(=O)N[C@H]1[C@H](OCCCCC(=O)NCCOCCOCCOCCOCCn2cc(COP(=O)(COCCn3cnc4c(N)ncnc43)OCOC(=O)C(C)(C)C)nn2)O[C@H](CO)[C@H](O)[C@H]1O (some centres undefined) . Reported Activity: Non-toxic

Form field Activity, entry CC(=O)N[C@H]1[C@H](OCCCCC(=O)NCCCNC(=O)CCOCC(COCCC(=O)NCCCNC(=O)CCCCO[C@@H]2O[C@H](CO)[C@H](O)[C@@H](O)[C@H]2NC(C)=O)(COCCC(=O)NCCCNC(=O)CCCCO[C@@H]2O[C@H](CO)[C@H](O)[C@@H](O)[C@H]2NC(C)=O)NC(=O)CCC(=O)NCCOCCOCCOCCOCCn2cc(COP(=O)(CO[C@H](C)Cn3cnc4c(N)ncnc43)OCOC(=O)OC(C)C)nn2)O[C@H](CO)[C@H](O)[C@H]1O (some centres undefined) : Non-toxic

Summary for this compound, CC(=O)N[C@H]1[C@H](OCCCCC(=O)NCCOCCOCCOCCOCCn2cc(COP(=O)(CO[C@H](C)Cn3cnc4c(N)ncnc43)OCOC(=O)C(C)(C)C)nn2)O[C@H](CO)[C@H](O)[C@H]1O (some centres undefined) : Activity is Non-toxic

Recorded result, CC(=O)N[C@H]1[C@H](OCCCCC(=O)NCCCNC(=O)CCOCC(COCCC(=O)NCCCNC(=O)CCCCO[C@@H]2O[C@H](CO)[C@H](O)[C@@H](O)[C@H]2NC(C)=O)(COCCC(=O)NCCCNC(=O)CCCCO[C@@H]2O[C@H](CO)[C@H](O)[C@@H](O)[C@H]2NC(C)=O)NC(=O)CCC(=O)NCCOCCOCCOCCOCCn2cc(COP(=O)(COCCn3cnc4c(N)ncnc43)OCOC(=O)C(C)(C)C)nn2)O[C@H](CO)[C@H](O)[C@H]1O (some centres undefined) , Activity: Non-toxic

###

Tested on: LX-2
Assay overview: Cytotoxicity against human LX2 cells assessed as cell growth inhibition at 10 uM incubated for 48 hrs by CCK8 assay relative to control
Format: toxicity, cell-based
Measurement context: lx-2, 48 h, 10 µM
Reported property: Activity

CC(=O)N[C@H]1[C@H](OCCCCC(=O)NCCCNC(=O)CCOCC(COCCC(=O)NCCCNC(=O)CCCCO[C@@H]2O[C@H](CO)[C@H](O)[C@@H](O)[C@H]2NC(C)=O)(COCCC(=O)NCCCNC(=O)CCCCO[C@@H]2O[C@H](CO)[C@H](O)[C@@H](O)[C@H]2NC(C)=O)NC(=O)CCC(=O)NCCOCCOCCOCCOCCn2cc(COP(=O)(CO[C@H](C)Cn3cnc4c(N)ncnc43)OCOC(=O)OC(C)C)nn2)O[C@H](CO)[C@H](O)[C@H]1O (stereo partly drawn) has a reported Activity of Toxic

get_value(item= CC(=O)N[C@H]1[C@H](OCCCCC(=O)NCCOCCOCCOCCOCCn2cc(COP(=O)(COCCn3cnc4c(N)ncnc43)OCOC(=O)C(C)(C)C)nn2)O[C@H](CO)[C@H](O)[C@H]1O (stereo partly drawn) , readout=Activity) returns Toxic

The recorded Activity for CC(C)OC(=O)[C@H](C)N[P@](=O)(CO[C@H](C)Cn1cnc2c(N)ncnc21)Oc1ccccc1 [TENOFOVIR ALAFENAMIDE] is Toxic
